target: human PD-1 (Jurkat-PD-1 cells) / PE-labeled human PD-L1-Ig (Homo sapiens); construct: expressed in transfected cells; host or cells: Jurkat cell line over-expressing human PD-1; assay: Jurkat-PD-1 Cell Binding High-Content Screening Assay (CBA); Jurkat hPD1-PDL1 assay; conditions: Jurkat cell line over-expressing human PD-1; PE-labeled PD-L1-Ig 20 nM final; compound incubated 2 hours at 37° C.; read-out: Jurkat HPD1-PDL1 IC50
Sequence (Q15116 25-288): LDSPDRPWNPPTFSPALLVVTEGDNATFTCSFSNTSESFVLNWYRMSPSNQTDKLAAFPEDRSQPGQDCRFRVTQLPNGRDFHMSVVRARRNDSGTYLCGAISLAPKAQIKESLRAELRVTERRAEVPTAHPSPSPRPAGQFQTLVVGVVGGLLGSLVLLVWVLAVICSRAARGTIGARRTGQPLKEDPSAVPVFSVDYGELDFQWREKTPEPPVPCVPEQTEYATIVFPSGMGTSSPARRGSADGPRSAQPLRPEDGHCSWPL
Positions of bridges follow the written chain, without caps; N, C: chain ends. Non-standard residues stand in square brackets, D forms with d. Residues, ends and D or L forms follow the SMILES beside them. Bip = N[C@@H](Cc1ccc(-c2ccccc2)cc1)C(=O)O; Phe(3-Cl) = N[C@@H](Cc1cccc(Cl)c1)C(=O)O; Phe(2-Me) = Cc1ccccc1C[C@H](N)C(=O)O; NMeF = CN[C@@H](Cc1ccccc1)C(=O)O; Cha = N[C@@H](CC1CCCCC1)C(=O)O; NMeL = CN[C@@H](CC(C)C)C(=O)O; NMeA = CN[C@@H](C)C(=O)O; Nle = CCCC[C@H](N)C(=O)O; Sar = CNCC(=O)O
measured_metric: IC50
Please append the unit to your numeric answer.

Previously resolved entries follow.
{"molecule": "CC(C)C[C@@H]1NC(=O)[C@H](Cc2c[nH]c3ccccc23)NC(=O)[C@H](CC(=O)O)NC(=O)[C@H](Cc2ccc(O)cc2)NC(=O)[C@H](Cc2ccccc2)NC(=O)CSC[C@@H](C(=O)N[C@@H](C)C(N)=O)NC(=O)[C@H](CO)NC(=O)[C@H](C(C)C)NC(=O)[C@H](CC(C)C)NC(=O)[C@H](CC(N)=O)NC(=O)CN(C)C(=O)[C@H](C)N(C)C(=O)[C@H](CCC(=O)O)NC(=O)[C@H](Cc2ccc(-c3ccccc3)cc2)NC1=O [Example 1119] ({CH2CO}-FYDWL[Bip]E[NMeA][Sar]NLVSCA-NH2; thioether N-14)", "IC50": "420 nM"}
{"molecule": "CC(C)C[C@@H]1NC(=O)[C@H](Cc2cccc(Cl)c2)NC(=O)[C@H](CC(=O)O)NC(=O)[C@H](Cc2ccc(O)cc2)NC(=O)[C@H](Cc2ccccc2)NC(=O)CSC[C@@H](C(=O)N[C@@H](C)C(N)=O)NC(=O)[C@H](CO)NC(=O)[C@H](C(C)C)NC(=O)[C@H](CC(C)C)NC(=O)[C@H](CC(N)=O)NC(=O)CN(C)C(=O)[C@H](C)N(C)C(=O)[C@H](C(C)C)NC(=O)[C@H](Cc2ccc(-c3ccccc3)cc2)NC1=O [Example 1061] ({CH2CO}-FYD[Phe(3-Cl)]L[Bip]V[NMeA][Sar]NLVSCA-NH2; thioether N-14)", "IC50": "140 nM"}

Which IC50 reading was recorded for the molecule CC(C)C[C@@H]1NC(=O)[C@H](CCCNC(=N)N)NC(=O)[C@H](CC(C)C)N(C)C(=O)[C@H](C)N(C)C(=O)[C@H](CCCNC(=N)N)NC(=O)[C@H](Cc2ccc(-c3ccccc3)cc2)NC(=O)[C@H](C(C)C)NC(=O)[C@H](Cc2c[nH]c3ccccc23)NC(=O)[C@H](CC(=O)O)NC(=O)[C@H](Cc2ccc(O)cc2)NC(=O)[C@H](Cc2ccccc2)NC(=O)CSC[C@@H](C(=O)NCC(N)=O)NC(=O)[C@H](CO)NC(=O)[C@H](C(C)C)NC1=O [Example 1281] ({CH2CO}-FYDWV[Bip]R[NMeA][NMeL]RLVSCG-NH2; thioether N-14) ?
460 nM

Also, CC[C@H](C)[C@@H]1NC(=O)[C@H](Cc2c[nH]c3ccccc23)NC(=O)[C@H](CC(=O)O)NC(=O)[C@H](Cc2ccc(O)cc2)NC(=O)[C@H](Cc2ccccc2)NC(=O)CSC[C@@H](C(=O)NCC(N)=O)NC(=O)[C@H](CO)NC(=O)[C@H](C(C)C)NC(=O)[C@H](CC(C)C)NC(=O)[C@H](CCCNC(=N)N)NC(=O)[C@H](Cc2ccccc2)N(C)C(=O)[C@H](C)N(C)C(=O)[C@H](CCCNC(=N)N)NC(=O)[C@H](Cc2ccc(-c3ccccc3)cc2)NC1=O [Example 1284] ({CH2CO}-FYDWI[Bip]R[NMeA][NMeF]RLVSCG-NH2; thioether N-14) please.
820 nM

Also, CC(C)C[C@@H]1NC(=O)[C@H](CCCNC(=N)N)NC(=O)[C@H](Cc2ccccc2)N(C)C(=O)[C@H](C)N(C)C(=O)[C@H](CCCNC(=N)N)NC(=O)[C@H](Cc2ccc(-c3ccccc3)cc2)NC(=O)[C@H](C(C)C)NC(=O)[C@H](Cc2c[nH]c3ccccc23)NC(=O)[C@H](CC(=O)O)NC(=O)[C@H](CCCCN)NC(=O)[C@H](Cc2ccccc2)NC(=O)CSC[C@@H](C(=O)NCC(N)=O)NC(=O)[C@H](CO)NC(=O)[C@H](C(C)C)NC1=O [Example 1213] ({CH2CO}-FKDWV[Bip]R[NMeA][NMeF]RLVSCG-NH2; thioether N-14) please.
590 nM

Also, CCCC[C@@H]1NC(=O)CSC[C@@H](C(=O)NCC(N)=O)NC(=O)[C@H](CO)NC(=O)[C@H](C(C)C)NC(=O)[C@H](CC(C)C)NC(=O)[C@H](CC(N)=O)NC(=O)CN(C)C(=O)[C@H](C)N(C)C(=O)[C@H](C(C)C)NC(=O)[C@H](Cc2ccc(-c3ccccc3)cc2)NC(=O)[C@H](CC(C)C)NC(=O)[C@H](Cc2c[nH]c3ccccc23)NC(=O)[C@H](CC(=O)O)NC(=O)[C@H](Cc2ccc(O)cc2)NC1=O [Example 1100] ({CH2CO}-[Nle]YDWL[Bip]V[NMeA][Sar]NLVSCG-NH2; thioether N-14) please.
310 nM

Also, CC(C)C[C@@H]1NC(=O)[C@H](CC(N)=O)NC(=O)CN(C)C(=O)[C@H](C)N(C)C(=O)[C@H](C(C)C)NC(=O)[C@H](Cc2ccc(-c3ccccc3)cc2)NC(=O)[C@H](CC2CCCCC2)NC(=O)[C@H](Cc2c[nH]c3ccccc23)NC(=O)[C@H](CC(=O)O)NC(=O)[C@H](Cc2ccc(O)cc2)NC(=O)[C@H](Cc2ccccc2)NC(=O)CSC[C@@H](C(=O)NCC(N)=O)NC(=O)[C@H](CO)NC(=O)[C@H](C(C)C)NC1=O [Example 1145] ({CH2CO}-FYDW[Cha][Bip]V[NMeA][Sar]NLVSCG-NH2; thioether N-14) please.
640 nM

Also, Cc1ccccc1C[C@@H]1NC(=O)[C@H](CC(=O)O)NC(=O)[C@H](Cc2ccc(O)cc2)NC(=O)[C@H](Cc2ccccc2)NC(=O)CSC[C@@H](C(=O)N[C@@H](C)C(N)=O)NC(=O)[C@H](CO)NC(=O)[C@H](C(C)C)NC(=O)[C@H](CC(C)C)NC(=O)[C@H](CC(N)=O)NC(=O)CN(C)C(=O)[C@H](C)N(C)C(=O)[C@H](C(C)C)NC(=O)[C@H](Cc2ccc(-c3ccccc3)cc2)NC(=O)[C@H](CC(C)C)NC1=O [Example 1172] ({CH2CO}-FYD[Phe(2-Me)]L[Bip]V[NMeA][Sar]NLVSCA-NH2; thioether N-14) please.
950 nM

Data provenance: patent US20240360178A1
